# Test system: Enterococcus faecium
# assay: Antibacterial activity against Enterococcus faecium ATCC 35667 assessed as minimum inhibitory concentration required for >=90% inhibition of bacterial growth by CLSI protocol based broth microdilution assay
# Assay type: functional
Entries annotated with measured MIC
quantity.kind: MIC (µM)

| molecule | quantity.kind | units.label | value.prefix | result |
| --- | --- | --- | --- | --- |
| CCn1cc(C(=O)O)c(=O)c2ccc(NC(=O)c3[nH]c(C)c(Cl)c3Cl)cc21 | MIC | µM | = | 1.56 |
| COC(=O)[C@H](C)NC(=O)c1ccc(NC(=O)c2[nH]c(C)c(Cl)c2Cl)c(OC2CCN(C(=O)OC(C)(C)C)CC2)c1 | MIC | µM | > | 25 |
| CC(=O)NC[C@H]1CN(c2ccc(N3CCOCC3)c(F)c2)C(=O)O1 [LINEZOLID] | MIC | µM | = | 11.9 |
| Cc1[nH]c(C(=O)Nc2ccc(C(=O)N[C@H](C)c3n[nH]c(=S)o3)cc2OC(C)C)c(Cl)c1Cl | MIC | µM | > | 125 |
| Cc1[nH]c(C(=O)Nc2ccc(C(=O)N[C@@H](C)C(=O)O)cc2OC2CCN(C(=O)OC(C)(C)C)CC2)c(Cl)c1Cl | MIC | µM | > | 25 |

====

# Tested on: Enterococcus faecalis
# assay: Antibacterial activity against Enterococcus faecalis ATCC 29212 assessed as bacterial growth inhibition at 50 uM incubated for 24 hrs by CLSI protocol based broth microdilution assay relative to control
# Format: functional

| mol | units.label | inhibition at 50 µM |
| --- | --- | --- |
| CCOC(=O)C(NC(=O)c1ccc(NC(=O)c2cc(Br)c(Br)[nH]2)cc1)C(=O)OCC | % | 8 |
| Cc1[nH]c(C(=O)Nc2ccc(C(=O)NCC#N)cc2)c(Cl)c1Cl | % | 92 |
| Cc1[nH]c(C(=O)Nc2ccc(C(=O)NS(C)(=O)=O)cc2)c(Cl)c1Cl | % | 16 |
| COC(=O)CNS(=O)(=O)c1ccc(NC(=O)c2[nH]c(C)c(Cl)c2Cl)cc1 | % | 8 |
| Cc1[nH]c(C(=O)Nc2ccc(S(=O)(=O)Nc3nccs3)cc2)c(Cl)c1Cl | % | 23 |
| CCOC(=O)C(NC(=O)c1ccc(NC(=O)c2[nH]c(C)c(Cl)c2Cl)cc1)C(=O)OCC | % | 14 |
| Cc1[nH]c(C(=O)Nc2ccc(C(=O)N[C@H](C)c3n[nH]c(=S)o3)cc2OC(C)C)c(Cl)c1Cl | % | 101 |

====

# assay: Cytotoxicity against human HepG2 cells assessed as reduction in cell proliferation at 50 uM after 72 hrs by MTS assay relative to control
# Type: cell-based
# assay.setup: read-out: Activity

| mol | inhibition at 72 h, 50 µM / % |
| --- | --- |
| Cc1[nH]c(C(=O)Nc2ccc(C(=O)N[C@H](C)c3n[nH]c(=S)o3)cc2OC(C)C)c(Cl)c1Cl | 80 |
| CCOC(=O)c1cn(CC)c2cc(NC(=O)c3[nH]c(C)c(Cl)c3Cl)ccc2c1=O | 90 |
| Cc1[nH]c(C(=O)Nc2ccc(C(=O)NCC(=O)O)cc2O[C@H]2CCNC2)c(Cl)c1Cl | 46 |

Just for reference, ChEMBL document CHEMBL4665629 is where these values come from.
